Kindly state % cells bound for each of the entries shown.
Target: T1, human IL-12Rβ2 (human, UniProt Q99665 24-862)
T1 construct: Expressed on HEK293T cells transiently transfected with a pcDNA3 plasmid (Genscript clone OHu21785); also called hIL-12RB2; IL-12 receptor β2 subunit
T1 sequence: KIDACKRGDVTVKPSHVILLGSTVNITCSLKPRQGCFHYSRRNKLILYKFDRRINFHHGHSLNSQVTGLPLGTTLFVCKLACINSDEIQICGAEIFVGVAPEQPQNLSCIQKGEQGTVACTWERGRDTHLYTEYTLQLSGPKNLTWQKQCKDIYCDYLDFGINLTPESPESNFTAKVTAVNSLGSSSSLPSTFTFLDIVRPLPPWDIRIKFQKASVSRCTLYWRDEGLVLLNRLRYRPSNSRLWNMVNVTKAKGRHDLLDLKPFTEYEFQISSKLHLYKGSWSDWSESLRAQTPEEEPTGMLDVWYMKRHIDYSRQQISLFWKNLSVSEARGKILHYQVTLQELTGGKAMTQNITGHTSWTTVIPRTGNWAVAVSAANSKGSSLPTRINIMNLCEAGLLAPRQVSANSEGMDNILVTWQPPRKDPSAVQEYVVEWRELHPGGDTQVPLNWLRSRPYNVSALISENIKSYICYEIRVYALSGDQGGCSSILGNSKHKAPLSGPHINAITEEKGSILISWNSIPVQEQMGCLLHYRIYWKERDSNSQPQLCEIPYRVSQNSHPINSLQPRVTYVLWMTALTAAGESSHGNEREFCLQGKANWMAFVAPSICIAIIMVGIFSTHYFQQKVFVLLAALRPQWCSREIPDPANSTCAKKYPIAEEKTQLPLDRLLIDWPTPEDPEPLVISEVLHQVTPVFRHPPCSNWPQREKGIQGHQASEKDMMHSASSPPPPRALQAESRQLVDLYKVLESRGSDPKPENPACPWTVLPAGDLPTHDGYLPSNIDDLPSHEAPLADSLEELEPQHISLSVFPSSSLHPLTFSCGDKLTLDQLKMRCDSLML
Assay: flow cytometry, P.E. on transfected HEK293T cells
Output spec: scalar in %, unitless text.

Sample anti-IL-12Rβ2 VHH clone 2CRHS4 (VHH, not shown: small tags and cut ends, periplasmic extract) VHH: QVQLQESGGGLVQPGGSLRLSCVSSQTLVGIEAMGWYRQAPGKQRELVALITLNGGTFYADSVKGRFTISRDVAGHMLYLEMNSLNPEDTAVYFCVAGVESDNEEPTYWGQGTQVTVSS — what was its % cells bound?
3.55

Try the binder anti-IL-12Rβ2 VHH clone 3CRH83 (VHH, not shown: small tags and cut ends, periplasmic extract) VHH: QVQLQESGGGLVQAGGSLKLSCAASGNTFSINAMAWYRQAPGQELELVAAISDVGNTIYADSMKGRFTISRGNADNTVYLQMNSLKPEDTATYYCNAGTFYTSPGDSYYRGYDFWGQGTQVTVSS
28.3

Please do the same for anti-IL-12Rβ2 VHH clone 3CRHS67 (VHH, not shown: small tags and cut ends, periplasmic extract) VHH: QVQLQESGGGLVQAGGSLTLSCVSSQTLVGIEAMGWYRQAPGKQRELVALITLNGGTFYADSVKGRFTISRDVAEHMLYLEMNSLNPEDTAVYFCVAGVESDNEEPTYWGQGTQVTVSS as well.
7.11

Follow-up item: anti-IL-12Rβ2 VHH clone 2CRH53 (VHH, not shown: small tags and cut ends, periplasmic extract) VHH: QVQLQESGGGLVQAGGSLVLSCAASGSAALIFLMSWYRQAPGKQRELVAEVSRYGSTTYADSVEGRFTISRDNAKDIVDLQMNSLKPEDTAVYYCKADQYYGDSLRSSWGRGTQVTVSS
35.3

Origin of measurements: patent US20260209362A1
